Reference source: PubChem BioAssay (NCI)

# System: LXFL 529 NSCLC
# ASSAY INFO: NCI tumour cell line growth inhibition, 48 h
QUANTITY MEASURED: TGI (µM)
Number in µM, nothing else.

# MOLECULE, TGI [µM]
rows = [
    ("C[C@H]1CCC/C=C/C2CC(OC(=O)CN(C)C)CC2C(OC(=O)CN(C)C)/C=C/C(=O)O1 (stereo not given in full)", 8.4),
]

Next, consider the following molecule.
Q) Tell me its TGI given Nc1cn(C2OC(CC(c3ccccc3)(c3ccccc3)c3ccccc3)C(O)C2O)c(=O)[nH]c1=O (stereo not given) as the entry.
A) 91.8

----------
# Tested on: SN12C renal
# ASSAY INFO: NCI tumour cell line growth inhibition, 48 h; in the data active = GI50 below about 0.43 µM; inactive = the rest
Give your call using only these classes: active, inactive

# COMPOUND, DISCRETE LABEL
measured = [
    ("C=CC(=O)N[C@@H]1CN(c2nc(Nc3cn(C)nc3OC)c3ncn(C)c3n2)C[C@H]1F", "inactive"),
    ("Nc1nc(N)c2c(n1)NC(c1sc(Cl)nc1Cl)CC(c1ccccc1)=N2 (stereo not given)", "inactive"),
    ("Cc1c2cnccc2c(C)c2c1c1cc(O)ccc1n2C(C)C", "inactive"),
    ("COc1ccc(-n2cc(-c3cc(OC)c(OC)c(OC)c3)nc2SCc2ccc(Cl)cc2)cc1OC", "inactive"),
    ("Cc1cc(S(=O)(=O)/N=C(\\N)Nc2cccc(O)c2)c(SCc2ccccc2)cc1Cl", "inactive"),
]

Q) For this compound, state the assay outcome: `Clc1ccc(-c2cc(-c3ccccc3)nc(N3CCN(CCCNc4ccnc5cc(Cl)ccc45)CC3)n2)cc1`
A) inactive

Q) For this compound, state the assay outcome: `CNC(=O)c1cc(Oc2ccc3nc(NC(=O)Nc4ccc(CN5CCOCC5)c(C(F)(F)F)c4)sc3c2)ccn1`
A) inactive

Q) For this compound, state the assay outcome: `CC(C)C[C@H](CC(=O)O)C(=O)N[C@@H](Cc1c[nH]c2ccccc12)C(=O)N[C@@H](C)c1ccccc1`
A) inactive

Q) For this compound, state the assay outcome: `O=C(COc1ccc(/C=C2\Oc3ccc4ccccc4c3C2=O)cc1)c1ccc([N+](=O)[O-])cc1`
A) inactive

Q) For this compound, state the assay outcome: `O=c1cc(-c2ccc(Cl)cc2)[nH]c2ccccc12`
A) inactive

Q) For this compound, state the assay outcome: Cc1nc2ccccn2c1NC(=O)NN1C(=O)CSC1c1ccc(Cl)cc1 (stereo not given)
A) inactive

Q) For this compound, state the assay outcome: `CCOC(=O)/C(=C/CC/C(C)=C/CC/C(C)=C/CCc1ccoc1)CC(=O)N1CCCCC1`
A) inactive

Q) For this compound, state the assay outcome: `O=C(NC1CCN(Cc2ccccc2)CC1)c1cc(-c2cccnc2)nc2ccc(Cl)cc12`
A) inactive

Q) For this compound, state the assay outcome: O=CC(OC(=O)c1ccccc1)C(OC(=O)c1ccccc1)C(COC(c1ccccc1)(c1ccccc1)c1ccccc1)OC(=O)c1ccccc1 (stereo not given)
A) inactive

Q) For this compound, state the assay outcome: C[C@H]1CCC/C=C/C2CC(OC(=O)CN(C)C)CC2C(OC(=O)CN(C)C)/C=C/C(=O)O1 (stereo not given in full)
A) active
